# TESTED SYSTEM: deoxycytidine kinase (dCK) (Homo sapiens, UniProt P27707)
# Sequence (P27707 whole entry): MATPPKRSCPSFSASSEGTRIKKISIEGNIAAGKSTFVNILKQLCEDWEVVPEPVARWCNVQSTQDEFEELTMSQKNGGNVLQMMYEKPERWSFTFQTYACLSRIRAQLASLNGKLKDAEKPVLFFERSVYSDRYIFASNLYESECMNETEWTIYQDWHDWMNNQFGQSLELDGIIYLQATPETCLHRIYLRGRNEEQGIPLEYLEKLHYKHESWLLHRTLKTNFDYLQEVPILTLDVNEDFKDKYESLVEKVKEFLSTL
# METHOD SUMMARY: HTS hit
pIC50: −log10 of the molar value.

>  <COMPOUND SMILES>
COc1ccc(Br)cc1-c1nc(CSc2nc(N)cc(N)n2)cs1

>  <pIC50>
5.85

$$$$
